Target: von Willebrand factor full length (Homo sapiens, UniProt P04275 SEQ:764-2813)
Test: filter; 29.0% bound at 100 nM vWF
Settings: tags: Calbiochem 681300; label: 5'-32P
ATTRIBUTE_MEASURED: Kd (nM)
API: value field is a number in nM; no unit string.

Any idea what Kd was measured for GCGUGCAGUGCCUUUGGCCGTGCGGTGCCUCCGUCACGC (mixed, 2'-OMe/deoxy composite, single PS, 3'-idT) [ARC1526] ? 47
